- Procedure summary: NCI Yeast Anticancer Drug Screen. Data for the rad18 strain (AID 177)
- Measurement parameters: S. cerevisiae rad18 mutant growth inhibition; at 100.0 µM; stronger effect = higher value
This is part of a sample that, as a whole, favours compounds with a hit. Of some 79,000 tested, about 15% had one in any assay.
Test readout: growth inhibition (%)

[
  {
    "Compound": "O=S(=O)(c1cc(Cl)ccc1O)c1cc(Cl)ccc1O",
    "Observed result": 99
  },
  {
    "Compound": "[Pt].c1ccc(P(CCP(c2ccccc2)c2ccccc2)CCP(c2ccccc2)c2ccccc2)cc1",
    "Observed result": 83
  },
  {
    "Compound": "C(=N/NC1=NCCN1)/c1c2ccccc2c(/C=N\\NC2=NCCN2)c2ccccc12",
    "Observed result": 92
  },
  {
    "Compound": "Cc1cc(OCc2ccccc2)ccc1[N+](=O)[O-]",
    "Observed result": 66
  },
  {
    "Compound": "CCOC(=O)CNC(=O)c1[nH]cnc1/N=N/N(C)C",
    "Observed result": 98
  },
  {
    "Compound": "COc1ccc(N2C(=O)CC(Cl)C2=O)cc1 (centres undefined)",
    "Observed result": 99
  },
  {
    "Compound": "CC(C)c1cccc(O)c(=O)c1",
    "Observed result": 98
  },
  {
    "Compound": "CCN(CC)CCNC(=O)c1nn(-c2ccc(Cl)cc2)c2c1CCc1cc(OC)ccc1-2",
    "Observed result": 95
  },
  {
    "Compound": "C/C=C/[P+](c1ccccc1)(c1ccccc1)c1ccccc1",
    "Observed result": 94
  },
  {
    "Compound": "CN(C)Cc1cccc(CN(C)C)[c]1[Sn]([Br])([c]1ccccc1)[c]1ccccc1",
    "Observed result": 97
  },
  {
    "Compound": "Cc1cc(O)c2c(c1O)C(=O)C13C(=C2O)C(=O)C2C(O)C1C1C(O)C3C(=O)C3=C(O)c4c(O)cc(C)c(O)c4C(=O)C321 (centres undefined)",
    "Observed result": 84
  },
  {
    "Compound": "COc1ccc(S(=O)(=O)N/N=C\\c2cc([N+](=O)[O-])cc(I)c2O)c(OC)c1OC",
    "Observed result": 93
  },
  {
    "Compound": "O=C(CCc1ccccc1)ON1C(=S)C(c2ccccc2)(c2ccccc2)N=C1Sc1ccccc1",
    "Observed result": 40
  },
  {
    "Compound": "COc1ccc2c(c1)[nH]c1c(/C=C/c3ccccc3)nccc12",
    "Observed result": 97
  },
  {
    "Compound": "CCOc1ccc(C(=O)CCC(=O)O)c(C)c1",
    "Observed result": -17
  },
  {
    "Compound": "OCCNCCOc1ccc(/C(=C(/Cl)c2ccccc2)c2ccccc2)cc1",
    "Observed result": 98
  },
  {
    "Compound": "CN=C(N)N/N=C(\\C)c1ccc2oc3ccc(/C(C)=N/NC(N)=NC)cc3c2c1",
    "Observed result": 98
  },
  {
    "Compound": "Cc1ccc(S(=O)(=O)N/N=C/C2(c3ccccc3)c3ccccc3-c3ccccc32)cc1",
    "Observed result": 89
  },
  {
    "Compound": "Cc1cc(Cl)nc2nc(Cl)c(N)cc12",
    "Observed result": 80
  }
]
